Biological target: UniProtKB P37288
Sequence (P37288 whole entry): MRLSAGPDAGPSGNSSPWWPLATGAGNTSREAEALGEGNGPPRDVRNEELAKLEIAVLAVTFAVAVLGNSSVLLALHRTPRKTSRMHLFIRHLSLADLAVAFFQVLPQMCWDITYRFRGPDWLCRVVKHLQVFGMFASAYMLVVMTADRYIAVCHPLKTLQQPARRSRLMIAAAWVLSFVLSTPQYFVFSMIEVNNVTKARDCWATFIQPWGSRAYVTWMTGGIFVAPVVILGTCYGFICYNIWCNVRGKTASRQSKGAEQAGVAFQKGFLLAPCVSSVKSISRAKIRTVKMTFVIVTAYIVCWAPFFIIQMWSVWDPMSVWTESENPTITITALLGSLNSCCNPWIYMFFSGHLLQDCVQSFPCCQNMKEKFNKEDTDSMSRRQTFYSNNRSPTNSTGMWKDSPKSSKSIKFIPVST
Label key: 1 (yes) means Ki under 20 nM; 0 (no) means Ki of 20 nM or more.

# Compound, Label
rows = [
    ("Cc1c(C(=O)N2CCC(n3c(=O)n(CCN(C)C)c4ccccc43)CC2)c2ccccc2n1Cc1ccccc1", "1 (yes)"),
    ("O=C(Cn1cc(C(=O)N2CCC(n3c(=O)[nH]c4ccccc43)CC2)c2ccc(Cl)cc21)c1cc(F)cc(F)c1", "1 (yes)"),
    ("Cc1c(C(=O)N2CCC(n3c(N4CCOCC4)nc4ccccc43)CC2)c2ccccc2n1Cc1ccccc1", "1 (yes)"),
    ("CC(C)n1cc(C(=O)N2CCC(n3c(=O)[nH]c4ccccc43)CC2)c2ccc(Cl)cc21", "1 (yes)"),
    ("CN(C)CCn1cc(C(=O)N2CCC(n3c(=O)[nH]c4ccccc43)CC2)c2ccc(Cl)cc21", "1 (yes)"),
    ("Cc1c(C(=O)N2CCC(n3c(Cl)nc4ccccc43)CC2)c2ccccc2n1Cc1ccccc1", "0 (no)"),
    ("CC(C)n1cc(C(=O)N2CCC(n3c(=O)[nH]c4ccccc43)CC2)c2ccccc21", "0 (no)"),
    ("Cc1oc(-c2ccccc2)nc1C(=O)Cn1cc(C(=O)N2CCC(n3c(=O)[nH]c4ccccc43)CC2)c2ccc(Cl)cc21", "0 (no)"),
    ("O=C(c1cn(C(=O)c2ccccc2F)c2cc(Cl)ccc12)N1CCC(n2c(=O)[nH]c3ccccc32)CC1", "0 (no)"),
    ("O=C(c1cn(Cc2cc(F)cc(F)c2)c2cc(Cl)ccc12)N1CCC(n2c(=O)[nH]c3ccccc32)CC1", "1 (yes)"),
    ("CCC(C)C(=O)c1[nH]c2ccccc2c1C(=O)N1CCC(n2c(=O)[nH]c3ccccc32)CC1 (centres unmarked)", "1 (yes)"),
    ("O=C(c1c[nH]c2cc(Cl)c(F)cc12)N1CCC(n2c(=O)[nH]c3ccccc32)CC1", "1 (yes)"),
    ("O=C(c1cn(Cc2ccccc2)c2ccccc12)N1CCC(n2c(=O)[nH]c3ccccc32)CC1", "1 (yes)"),
]
